Literature roundup of the protein given by its sequence data, read-out IC50.
Protein target, amino acids: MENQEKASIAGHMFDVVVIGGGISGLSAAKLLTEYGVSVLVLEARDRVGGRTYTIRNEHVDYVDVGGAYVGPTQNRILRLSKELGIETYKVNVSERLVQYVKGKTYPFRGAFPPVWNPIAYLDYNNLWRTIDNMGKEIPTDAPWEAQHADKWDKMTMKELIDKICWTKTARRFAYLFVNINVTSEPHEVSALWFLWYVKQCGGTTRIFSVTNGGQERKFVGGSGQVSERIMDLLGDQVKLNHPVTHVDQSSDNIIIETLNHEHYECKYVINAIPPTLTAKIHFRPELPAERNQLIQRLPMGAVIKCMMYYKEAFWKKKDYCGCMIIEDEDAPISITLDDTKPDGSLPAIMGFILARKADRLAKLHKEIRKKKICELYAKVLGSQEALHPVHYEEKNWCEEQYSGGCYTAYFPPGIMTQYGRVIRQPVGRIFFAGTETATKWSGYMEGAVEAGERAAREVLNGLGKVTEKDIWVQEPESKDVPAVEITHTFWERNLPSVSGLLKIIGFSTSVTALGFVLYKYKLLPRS

These solved cases illustrate the format of a correct answer.
INSERT INTO results (smi, subject_of_test, result) VALUES
  ('CC(=O)Oc1ccc(-c2cc3ccc4ccccc4c3oc2=O)cc1OC(C)=O', 'the protein given by its sequence', '78.3 µM'),
  ('O=C(Nc1ccccc1Cl)c1ccc2c(c1)OCCO2', 'the protein given by its sequence', '> 40 µM');

Kindly give each listed record's IC50.
1. Cc1ccc(-c2ncc3c(cc(CN4CC[C@H](N)C4)n3C(C)C)c2-c2ccc(C#N)c(F)c2)cc1C
2. COc1ccc(NC(=O)c2ccc3c(c2)OCCO3)cc1
3. COc1ccc(NC(=O)c2ccc3c(c2)OCCO3)cc1OC
4. C/C(=N\N=C1/CS(=O)(=O)N(C)c2ccccc21)c1sccc1Cl

Reply |
1. > 20 µM
2. > 40 µM
3. > 40 µM
4. 1.04 µM

Kindly give each listed record's IC50.
1. O=C(Nc1ccc2c(c1)OCCO2)c1ccc2c(c1)OCCO2
2. Cc1cc(C)c(-c2ncc3c(cc(CN4CC[C@H](N)C4)n3CC(F)F)c2-c2ccc(C#N)c(F)c2)cc1C
3. O=C(Nc1ccccc1F)c1ccc2c(c1)OCCO2

Reply |
> 40 µM
> 20 µM
> 40 µM
